- targetOrSystem: Met receptor (EGFR/Met chimeric cells, EMR) (Homo sapiens, UniProt P08581)
- Construct: expressed in transfected cells; the other entry of the earlier key: EGFR (P00533, Epidermal growth factor receptor)
- Sequence (P08581 with tags, fused parts or gaps): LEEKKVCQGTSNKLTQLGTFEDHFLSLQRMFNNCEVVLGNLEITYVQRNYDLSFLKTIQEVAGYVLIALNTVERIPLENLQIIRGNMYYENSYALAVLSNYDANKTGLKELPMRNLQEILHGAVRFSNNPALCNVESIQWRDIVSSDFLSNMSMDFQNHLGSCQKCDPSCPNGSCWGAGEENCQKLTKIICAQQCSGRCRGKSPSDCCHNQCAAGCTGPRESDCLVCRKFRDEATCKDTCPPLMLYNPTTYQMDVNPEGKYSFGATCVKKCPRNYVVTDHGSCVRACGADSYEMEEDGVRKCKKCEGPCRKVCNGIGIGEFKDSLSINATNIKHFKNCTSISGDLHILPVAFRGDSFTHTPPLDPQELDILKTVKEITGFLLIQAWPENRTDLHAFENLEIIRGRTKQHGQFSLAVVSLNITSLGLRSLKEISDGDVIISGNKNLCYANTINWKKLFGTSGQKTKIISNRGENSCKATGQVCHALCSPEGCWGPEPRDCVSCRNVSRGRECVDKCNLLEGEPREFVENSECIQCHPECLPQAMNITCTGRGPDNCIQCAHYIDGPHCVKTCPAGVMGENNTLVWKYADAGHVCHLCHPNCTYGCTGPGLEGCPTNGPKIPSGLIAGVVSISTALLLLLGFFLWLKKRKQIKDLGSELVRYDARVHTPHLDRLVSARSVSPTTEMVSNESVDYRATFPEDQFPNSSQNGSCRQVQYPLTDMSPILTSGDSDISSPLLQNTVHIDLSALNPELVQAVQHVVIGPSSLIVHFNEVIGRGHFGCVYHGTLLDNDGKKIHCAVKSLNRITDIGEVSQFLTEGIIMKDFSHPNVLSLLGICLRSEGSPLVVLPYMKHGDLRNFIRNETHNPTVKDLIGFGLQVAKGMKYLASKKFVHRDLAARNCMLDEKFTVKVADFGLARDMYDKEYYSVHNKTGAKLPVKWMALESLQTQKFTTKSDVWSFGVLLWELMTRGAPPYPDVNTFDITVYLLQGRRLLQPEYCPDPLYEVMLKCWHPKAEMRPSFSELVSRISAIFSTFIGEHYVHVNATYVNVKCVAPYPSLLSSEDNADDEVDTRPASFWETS
- measurementDescription: Met Autophosphorylation Assay; note: test concentration or dose not given here
- Type: biochemical
measuredProperty: Met Kinase % Inhibition (P.130)
Answer with the figure and its unit, nothing else.

Note down Met Kinase % Inhibition (P.130) recorded for CCc1ccc(C=C2C(=O)Nc3c(Br)cc(Br)c(C)c32)o1 [10724/H10] 72.2%

Note down Met Kinase % Inhibition (P.130) recorded for Cc1c(Br)cc(Br)c2c1C(=Cc1cccc(Br)c1)C(=O)N2 [10723/H10] 46.4%

Note down Met Kinase % Inhibition (P.130) recorded for Cc1c(Br)cc(Br)c2c1C(=CC1C=CCCC1)C(=O)N2 (stereo not drawn) [10729/H11] 36.1%

Note down Met Kinase % Inhibition (P.130) recorded for Cc1c(Br)cc(Br)c2c1C(=Cc1ccc(C(C)(C)C)cc1)C(=O)N2 [10734/H10] 23.5%

Note down Met Kinase % Inhibition (P.130) recorded for CCN(CC)c1ccc(C=C2C(=O)Nc3c(Br)cc(Br)c(C)c32)c(O)c1 [10734/H05] 51.1%

Note down Met Kinase % Inhibition (P.130) recorded for CNS(=O)(=O)c1ccc2c(c1)C(=Cc1cc(Cl)cc(Cl)c1O)C(=O)N2 [10734/D03] 78.6%

Note down Met Kinase % Inhibition (P.130) recorded for O=C1Nc2ccc(S(=O)(=O)Nc3ccc(C(F)(F)F)cc3)cc2C1=Cc1ccc(O)c(Br)c1 [10734/E09] 96.2%

Note down Met Kinase % Inhibition (P.130) recorded for N#Cc1ccccc1C=C1C(=O)Nc2ccc(S(=O)(=O)Nc3ccc(C(F)(F)F)cc3)cc21 [10735/E07] 64.5%

Note down Met Kinase % Inhibition (P.130) recorded for Cc1c(Br)ccc2c1C(=Cc1ccc(-c3ccccc3)cc1)C(=O)N2 [10735/C11] 14.1%

Note down Met Kinase % Inhibition (P.130) recorded for Cc1c(Br)ccc2c1C(=Cc1ccccc1C#N)C(=O)N2 [10735/C07] 49.1%

Note down Met Kinase % Inhibition (P.130) recorded for O=C1Nc2ccc(I)cc2C1=Cc1cccc2ccccc12 [10735/B09] 46.8%

Note down Met Kinase % Inhibition (P.130) recorded for COc1cc(OC)c(OC)cc1C=C1C(=O)Nc2c(Br)cc(Br)c(C)c21 [10730/H03] 28.3%

Note down Met Kinase % Inhibition (P.130) recorded for CC(C)(C)c1ccc(C=C2C(=O)Nc3ccc(S(=O)(=O)Nc4ccc(C(F)(F)F)cc4)cc32)cc1 [10734/E10] 27.9%

Note down Met Kinase % Inhibition (P.130) recorded for CCc1c(C)[nH]c(C=C2C(=O)Nc3c(Br)cc(Br)c(C)c32)c1C [10719/H05] 20.9%

Note down Met Kinase % Inhibition (P.130) recorded for O=C1Nc2ccc(I)cc2C1=Cc1cccc(F)c1 [10736/B07] 87.2%

Note down Met Kinase % Inhibition (P.130) recorded for Cc1c(Br)cc(Br)c2c1C(=Cc1coc3ccc([N+](=O)[O-])cc3c1=O)C(=O)N2 [10731/H07] 1.8%

Note down Met Kinase % Inhibition (P.130) recorded for COc1cccc(C=C2C(=O)Nc3c(Br)cc(Br)cc32)c1 [10736/A10] 65.0%

Note down Met Kinase % Inhibition (P.130) recorded for O=C1Nc2ccc(S(=O)(=O)Nc3ccc(C(F)(F)F)cc3)cc2C1=Cc1cc(C(F)(F)F)cc(C(F)(F)F)c1 [10735/E06] 33.3%
